Target: corticotropin releasing factor 1 receptor
Assay: cell-based or functional assay
Ends that are not written are not given here.
property: CRF1R Emax % (%)
Form entry: value (%) — number only.

Check out these entries, answers already filled in.
ZGPPISIDLPYQLLRKVIEIEKQEKEKQQAANNRLLLDTI (C-terminal amide) [SEQ ID NO 283]: 100
ZGPPISIDLPFQLLRKTIEIEKQEKEKQQATTNARLLDRV (C-terminal amide) [SEQ ID NO 321]: 33.8
ZGPPISIDLPHQLLRKMIEIEKQEKEKQQAANNRLLLDTI (C-terminal amide) [SEQ ID NO 212]: 100

Field request: CRF1R Emax % | item: IVLSLDVPIGLLQILLEKAAAEAEAAAKAAQEQILAHV-NH2 [SEQ ID NO 366]
9

Field request: CRF1R Emax % | item: ZGPPISIDLPYHLLRKVIEIEKQEKEKQQAANNALLLATI (C-terminal amide) [SEQ ID NO 313]
87.1

Field request: CRF1R Emax % | item: ZGPPISIDVPFQLLRKVIEIEKQEKEKQQAANNARLLARI (C-terminal amide) [SEQ ID NO 383]
55

Field request: CRF1R Emax % | item: NDDPPISIDLPFLLLRNMIEMARIENEREQAGLNAKYLAEV-NH2 [SEQ ID NO 260]
89.7

Field request: CRF1R Emax % | item: ZGPPISIDLPLQLLRKMIEIEKQEKEKQQAANNALLLDTI (C-terminal amide) [SEQ ID NO 248]
32

Field request: CRF1R Emax % | item: ZGPPISIDLPFHLLRKMIEIEKQEKEKQQAANNALLLDTI (C-terminal amide) [SEQ ID NO 228]
100

Field request: CRF1R Emax % | item: ZGPPISIDLPYHLLRKMIEIEKQEKEKQQAANNALLLAT (C-terminal amide) [SEQ ID NO 315]
100

Field request: CRF1R Emax % | item: ZGPPISIDLPFQLLRKVIEIEKQEKEKQQAANNAHLLAHI (C-terminal amide) [SEQ ID NO 277]
39.9

Field request: CRF1R Emax % | item: ZGPPISIDLPIFLLRKVIEIEKQEKEKQQAANNALLLATI (C-terminal amide) [SEQ ID NO 280]
11.8
